target: CFTR (Homo sapiens, UniProt P13569); construct: results in the phosphorylation and opening of CFTR anion channels; assay: T84 assay (FLIPR membrane potential dye, forskolin/IBMX-stimulated CFTR channel activity); details: human colonic T84 cells, average of at least 2 runs unless annotated n = 1
Sequence (P13569 whole entry): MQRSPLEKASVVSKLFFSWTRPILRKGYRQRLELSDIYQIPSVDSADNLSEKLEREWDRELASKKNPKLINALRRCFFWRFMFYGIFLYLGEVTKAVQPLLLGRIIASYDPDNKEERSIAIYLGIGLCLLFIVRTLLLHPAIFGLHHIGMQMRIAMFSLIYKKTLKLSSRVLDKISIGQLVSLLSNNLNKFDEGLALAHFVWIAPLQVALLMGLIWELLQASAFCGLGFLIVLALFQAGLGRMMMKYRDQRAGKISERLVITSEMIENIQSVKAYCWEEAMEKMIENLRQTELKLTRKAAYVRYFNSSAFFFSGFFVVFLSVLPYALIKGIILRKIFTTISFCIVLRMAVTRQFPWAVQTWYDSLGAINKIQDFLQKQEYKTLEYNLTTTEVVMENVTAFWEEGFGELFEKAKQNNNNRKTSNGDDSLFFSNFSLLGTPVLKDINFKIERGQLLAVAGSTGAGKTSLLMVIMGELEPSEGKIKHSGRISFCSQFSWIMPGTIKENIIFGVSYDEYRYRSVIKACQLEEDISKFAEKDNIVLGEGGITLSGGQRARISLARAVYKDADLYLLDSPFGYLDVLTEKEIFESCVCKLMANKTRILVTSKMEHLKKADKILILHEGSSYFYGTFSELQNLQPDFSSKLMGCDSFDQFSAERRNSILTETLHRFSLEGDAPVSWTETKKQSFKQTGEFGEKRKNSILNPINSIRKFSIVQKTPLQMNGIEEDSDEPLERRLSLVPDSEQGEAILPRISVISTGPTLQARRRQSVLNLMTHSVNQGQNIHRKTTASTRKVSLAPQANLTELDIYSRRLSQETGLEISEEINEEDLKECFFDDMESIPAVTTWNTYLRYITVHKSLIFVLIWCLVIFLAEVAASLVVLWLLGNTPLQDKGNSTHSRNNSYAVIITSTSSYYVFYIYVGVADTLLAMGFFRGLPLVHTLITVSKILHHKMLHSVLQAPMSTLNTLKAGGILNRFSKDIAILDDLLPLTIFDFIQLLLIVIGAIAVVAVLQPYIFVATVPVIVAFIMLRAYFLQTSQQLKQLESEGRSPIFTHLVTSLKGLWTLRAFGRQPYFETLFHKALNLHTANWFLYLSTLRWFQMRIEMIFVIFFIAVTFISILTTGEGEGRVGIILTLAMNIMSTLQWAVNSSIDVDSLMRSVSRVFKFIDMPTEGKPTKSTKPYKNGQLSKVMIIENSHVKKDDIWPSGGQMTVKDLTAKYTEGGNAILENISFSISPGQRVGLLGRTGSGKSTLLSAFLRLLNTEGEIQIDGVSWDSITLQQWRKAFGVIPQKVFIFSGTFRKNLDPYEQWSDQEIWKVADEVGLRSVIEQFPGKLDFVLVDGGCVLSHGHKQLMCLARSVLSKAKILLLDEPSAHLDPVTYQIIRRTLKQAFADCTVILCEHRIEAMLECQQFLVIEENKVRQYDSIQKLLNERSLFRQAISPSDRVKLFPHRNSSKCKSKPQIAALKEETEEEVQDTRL
RECORDED_METRIC: IC50 (µM)
Lab book: enter the figure in µM, no units written.

// solved cases for IC50 follow
SMILES: O=C(NC(c1ccccc1)c1ccccc1)c1nc(-c2cc(Br)c(O)c(Br)c2)n[nH]1
SYSTEM_NAME: CFTR (Homo sapiens, UniProt P13569)
IC50, µM: 3.23
//
SMILES: CN(Cc1ccc(C(C)(C)C)cc1)C(=O)c1n[nH]c(-c2cc(Cl)c(O)c(Cl)c2)n1
SYSTEM_NAME: CFTR (Homo sapiens, UniProt P13569)
IC50, µM: 7.53
//
SMILES: O=C(NCc1ccc(Oc2ccccc2)cc1)c1nc(-c2cc(Br)c(O)c(Br)c2)n[nH]1
SYSTEM_NAME: CFTR (Homo sapiens, UniProt P13569)
IC50, µM: 1.51
//
SMILES: O=C(NCc1ccc(C(F)(F)F)cc1)c1n[nH]c(-c2cc(Cl)c(O)c(Cl)c2)n1
SYSTEM_NAME: CFTR (Homo sapiens, UniProt P13569)
IC50, µM: 25.1
//
SMILES: CN(Cc1ccc(Cl)c(Cl)c1)C(=O)c1n[nH]c(-c2cc(Cl)c(O)c(Cl)c2)n1
SYSTEM_NAME: CFTR (Homo sapiens, UniProt P13569)
IC50, µM: 7.92
//
SMILES: O=C(NCc1ccc(Cl)c(Cl)c1)c1n[nH]c(-c2cc(Cl)c(O)c(Cl)c2)n1
SYSTEM_NAME: CFTR (Homo sapiens, UniProt P13569)
IC50, µM: 1.57

Specify reported IC50 for the compound shown: O=C(NCc1cccc(OC(F)(F)F)c1)c1n[nH]c(-c2cc(Cl)c(O)c(Cl)c2)n1
22.2

Specify reported IC50 for the compound shown: O=C(NCc1ccc(F)c(F)c1)c1n[nH]c(-c2cc(Cl)c(O)c(Cl)c2)n1
15.6

Where do the numbers come from? From patent US20090264471A1.
